Entries and their IC50 values follow.
- tested_on: Protein Tat (Human immunodeficiency virus type 1 group M subtype B (isolate HXB2))
- method_description: inhibitors of Tat binding to TAR RNA, dose response, counter-screen for Vif-APOBEC3G degradation inhibitor project, biochemical, fluorescence polarization, FAM-labeled TAR RNA (AID 1117361)

Example results:
O=C(O)c1cccc(-n2cccc2/C=C/[N+](=O)[O-])c1 :: 5.57 µM
O=C1Cc2cccc(=O)c(O)c2C(=O)O1 :: 87.7 µM
C/C(=N\Nc1ccc([N+](=O)[O-])cc1[N+](=O)[O-])c1cc2c(ccc3ccccc32)oc1=O :: 15.6 µM
O=C(O)c1cccc2cccc(-c3c4ccc(=O)c(O)c-4oc4c(O)c(O)ccc34)c12 :: 3.38 µM
O=[N+]([O-])c1cc(-c2ccc(/C=N/c3nc4ccccn4c3-c3ccco3)o2)ccc1Cl :: 28.7 µM
O=C(O)CC(C(=O)O)N1C(=O)/C(=C/C=C/c2ccco2)SC1=S (stereo unspecified) :: 1.33 µM
CC(C)CNC1=CC(=O)CC(c2ccco2)C1 (stereo unspecified) :: 31.3 µM
Cc1ccn2cc(-c3nonc3C)cc2c1 :: 21.4 µM
CNC(=O)c1ccccc1NC(=O)c1ccc(C)c(S(=O)(=O)N2CCCCC2)c1 :: 0.969 µM
Cc1oc(C)c2c(=O)ccc3c(c12)OC(N)=C(C#N)C3c1ccccc1 (stereo unspecified) :: 81.9 µM

Now turn to the next compound.
Enquiry: Query IC50 for O=c1c(O)cccc2cc(O)c(O)c(O)c12
Return: 3.96 µM

----------
- tested_on: Protein Tat (Human immunodeficiency virus type 1 group M subtype B (isolate HXB2)) (UniProt P04608)
- Sequence (P04608 whole entry, looked up): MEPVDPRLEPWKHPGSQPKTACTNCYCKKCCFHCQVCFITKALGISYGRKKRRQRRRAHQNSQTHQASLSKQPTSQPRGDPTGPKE
- method_description: inhibitors of Tat binding to TAR RNA, dose response, counter-screen for Vif-APOBEC3G degradation inhibitor project, biochemical, fluorescence polarization, FAM-labeled TAR RNA (AID 1117361)
Entries and their pIC50 values follow.
// pIC50: -log10(molar conc.)

O=c1cc(-c2ccccc2Cl)c2c([nH]1)CCC2 :: 4.72
COc1cc2c(cc1N)-c1ccc(N)cc1C2 :: 5.60
O=[N+]([O-])c1ccc(N/N=C/c2ccc(O)c(O)c2O)c(S(=O)(=O)N2CCOCC2)c1 :: 4.47
O=C(CCN1CCN(c2ccccc2)CC1)N/N=C/c1ccc(O)c(O)c1O :: 5.31
COC(=O)c1cnn2c(C(F)(F)F)cc(-c3ccco3)nc12 :: 4.17
Cc1cccc(NC2=Nc3ccccc3N3C2=Nc2c(c(C)nn2-c2ccccc2)C3c2ccc(O)c(O)c2)c1 (stereo unspecified) :: 4.37

Enquiry: Query pIC50 for CCOC(=O)NC1(NC2CCCCC2)Oc2ccccc2O1
Return: 4.05

Enquiry: Query pIC50 for O=C1CC(Nc2ccc(N3CCOCC3)cc2)C(=O)N1C1CCCCC1 (stereo unspecified)
Return: 4.94

Enquiry: Query pIC50 for O=C(OC1CCCCC1)c1ccc2c(c1)C1C=CCC1C(C(=O)O)N2 (stereo unspecified)
Return: 5.65

Enquiry: Query pIC50 for CCOc1cccc(=O)c2c(C)n(C)c(C)c12
Return: 4.26

Enquiry: Query pIC50 for CC[C@H](C)/C=C(C)/C=C/C1=CC2=CC(=O)[C@]3(C)OC(=O)[C@@H](C(C)=O)[C@@H]3C2=CO1
Return: 4.84

----------
Entries and their IC50 values follow.
- tested_on: Protein Tat (Human immunodeficiency virus type 1 group M subtype B (isolate HXB2)) (UniProt P04608)
- method_description: inhibitors of Tat binding to TAR RNA, dose response, counter-screen for Vif-APOBEC3G degradation inhibitor project, biochemical, fluorescence polarization, FAM-labeled TAR RNA (AID 1117361)

CCOC(=O)Cn1nnnc1C(C(C)C)N(Cc1cc2c(C)cc(C)cc2[nH]c1=O)C1CCCC1 (stereo unspecified) :: 67.6 µM
Oc1ccc(NCc2cccc(OCc3ccccc3)c2)cc1 :: 66.7 µM
O=C1NC(=O)N(Cc2ccccc2)C(=O)/C1=C\C=C\c1ccco1 :: 30.9 µM
Oc1ccc(NCc2cccc(OCc3ccc(F)cc3)c2)cc1 :: 68.7 µM
COC(=O)CSc1nnc(CNC(=O)Cc2ccccc2)n1C :: 1.43 µM
C[n+]1cccc2cccc([O-])c21 :: 13.7 µM

Enquiry: Query IC50 for CC1=NN(C(N)=S)C(=O)C1N=Nc1cccc([N+](=O)[O-])c1 (stereo unspecified)
Return: 99.2 µM

Enquiry: Query IC50 for CCOC(=O)c1sc2nc(CC(=O)OC)nc(NCc3ccco3)c2c1C
Return: 16.1 µM

Enquiry: Query IC50 for CN(C)C(=O)c1nc2ccc(Cl)cn2c1CN1CCCC(OCc2ccccc2)C1 (stereo unspecified)
Return: 44.6 µM

Enquiry: Query IC50 for O=C(CN1C(=O)NC2(CCCCCCC2)C1=O)NCc1cccs1
Return: 36.5 µM

Enquiry: Query IC50 for Cc1ccc(C(=O)C2=C(O)C(=O)N(c3ncccn3)C2c2ccc(F)cc2)o1 (stereo unspecified)
Return: 82.7 µM

----------
- tested_on: Protein Tat (Human immunodeficiency virus type 1 group M subtype B (isolate HXB2)) (UniProt P04608)
- method_description: inhibitors of Tat binding to TAR RNA, dose response, counter-screen for Vif-APOBEC3G degradation inhibitor project, biochemical, fluorescence polarization, FAM-labeled TAR RNA (AID 1117361)
Entries and their pIC50 values follow.
// pIC50: -log10(molar conc.)

Example results:
Cc1ccc(C)n1-c1ccc(C(=O)O)cc1 :: 5.04
O=[N+]([O-])c1cc2oc3c(c2c(C=NCc2ccncc2)c1O)CCCC3 :: 4.87
Nc1cc(N)c(OCC(F)(F)F)cc1OCC(F)(F)F :: 4.94
CCCCC1=CC2=CC(=O)C(C)(OC(=O)c3cnc4ccccc4n3)C(=O)C2=CO1 (stereo unspecified) :: 5.14
CCOC1(OCC)N=C(N)C2(C#N)C(c3cccc(OC)c3OC)C12C#N (stereo unspecified) :: 5.80

Now turn to the next compound.
Enquiry: Query pIC50 for COc1cc(/C=C/C=C2/CC/C(=C/C=C/c3ccc(O)c(OC)c3)C2=O)ccc1O
Return: 4.35

----------
Entries and their pIC50 values follow.
- tested_on: Protein Tat (Human immunodeficiency virus type 1 group M subtype B (isolate HXB2))
- method_description: inhibitors of Tat binding to TAR RNA, dose response, counter-screen for Vif-APOBEC3G degradation inhibitor project, biochemical, fluorescence polarization, FAM-labeled TAR RNA (AID 1117361)
// pIC50: -log10(molar conc.)

Enquiry: Query pIC50 for O=C(CCS(=O)(=O)c1ccc(Br)cc1)NC1CCCC1
Return: 4.29

Enquiry: Query pIC50 for COCc1cc(C)nc(NCCO)c1C#N
Return: 5.84

Enquiry: Query pIC50 for COc1ccccc1N1C(=O)NC(=O)/C(=C/c2ccc([N+](=O)[O-])s2)C1=O
Return: 4.76

----------
- tested_on: Protein Tat (Human immunodeficiency virus type 1 group M subtype B (isolate HXB2))
- method_description: inhibitors of Tat binding to TAR RNA, dose response, counter-screen for Vif-APOBEC3G degradation inhibitor project, biochemical, fluorescence polarization, FAM-labeled TAR RNA (AID 1117361)
experimental_readout: IC50

COc1ccc(NC(=O)c2cc(-c3ccco3)nc3ccccc23)cc1S(=O)(=O)N1CCOCC1 :: 19.3 µM
O=C(NCc1ccccc1Cl)c1csc2c1CCCCC2 :: 27.2 µM
O=C(c1cc(-c2ccco2)on1)N1CCN(c2ccccc2)CC1 :: 18.6 µM

Now turn to the next molecule.
Enquiry: Query IC50 for Cc1cc(-c2nc3c4c5c(sc4[nH]c(=O)n3n2)CCC5)c(C)o1
Return: 3.66 µM

----------
Entries and their IC50 values follow.
- tested_on: Protein Tat (Human immunodeficiency virus type 1 group M subtype B (isolate HXB2)) (UniProt P04608)
- method_description: inhibitors of Tat binding to TAR RNA, dose response, counter-screen for Vif-APOBEC3G degradation inhibitor project, biochemical, fluorescence polarization, FAM-labeled TAR RNA (AID 1117361)

Example results:
COc1ccc2c(c1OC)C(=O)OC2CC(=O)c1ccc(O)c(O)c1 (stereo not given) :: 80.5 µM
Cc1[nH]c2c(Cl)cccc2c(=O)c1CN1CCCC1 :: 78.3 µM

Enquiry: Query IC50 for CC1(OC(=O)C2CCCC2)C(=O)C=C2C=C(c3ccsc3)OC=C2C1=O (stereo not given)
Return: 45.4 µM

Enquiry: Query IC50 for Cc1ccccc1NC(=O)CSc1nnc(-c2ccco2)c(-c2ccco2)n1
Return: 2.73 µM

Enquiry: Query IC50 for CCOC(=O)C1=C(c2ccccc2)N=c2s/c(=C\c3ccco3)c(=O)n2C1c1cccs1 (stereo not given)
Return: 32.8 µM

Enquiry: Query IC50 for CCCCN1C2CCCC1CC(NC(=O)c1ccc(OC)c(OC)c1)C2 (stereo not given)
Return: 78.3 µM
